tested on: RPMI-8226 leukemia; assay: NCI tumour cell line growth inhibition, 48 h
We begin with a simple list: items and their reported TGI.

>>> df
                                   compound  endpoint    result
0  O=c1[nH]c(N/N=C\C(=N/Nc2nc3ccccc3c(=O)[nH]2)C(O)C(O)C(O)CO)nc2ccccc12 (stereo unspecified)       TGI  > 100 µM
1  Oc1[nH]c(=S)[nH]c1/C=C1/C(c2ccccc2)=Nc2ccccc21       TGI   36.2 µM
2  COc1cc2c(c(O)c1OC)C(=O)[C@@H]1CCC(=O)N1C2c1ccccc1 (stereo partly specified)       TGI  > 100 µM
3  C=CC(=O)N1C[C@@H]2CCOc3c(Cl)c(-c4c(O)cccc4F)c(F)c4ncnc(c34)N2C[C@H]1C       TGI  > 100 µM

Problem: Sample `O=c1oc2ccccc2c(O)c1C(c1cnc2ccccc2c1)c1c(O)c2ccccc2oc1=O` — what was its TGI?
Result: > 100 µM

Problem: Sample CCOC(=O)C1=C(C)NC2=C(C(=O)N(c3ccccc3)C2c2ccccc2)C1c1ccccc1 (stereo unspecified) — what was its TGI?
Result: 53.4 µM

Problem: Sample NC(CCOCCP(=O)(O)CCC1C=CC=CC1)C(=O)O (stereo unspecified) — what was its TGI?
Result: > 100 µM

Problem: Sample CC(NCc1c(O)ccc2ccc(=O)oc12)C(=O)O (stereo unspecified) — what was its TGI?
Result: > 100 µM

Problem: Sample `CCC1(CC)C(=O)N(C(=O)c2ccccc2)N(C(=O)c2ccc(Cl)cc2)C1=O` — what was its TGI?
Result: > 75 µM

Problem: Sample CCOC(=O)C(NC(C)=O)(Nc1ccc(S(N)(=O)=O)cc1)C(F)(F)F (stereo unspecified) — what was its TGI?
Result: > 100 µM

Problem: Sample `NS(=O)(=O)c1ccc(NC(=O)Cc2nc3ccccc3s2)cc1` — what was its TGI?
Result: 74.1 µM

====

tested on: HT29 colon; experiment: NCI tumour cell line growth inhibition, 48 h
We begin with a simple list: items and their reported TGI.

Problem: Sample CC(O)CN1c2ccccc2Sc2ccccc21 (stereo not given) — what was its TGI?
Result: > 100 µM

Problem: Sample C=C1C(=O)O[C@H]2[C@H](OC(C)=O)[C@@H](C)CCCC3(C)OC3CCC3(CO3)[C@H](O)C[C@@H]12 (stereo not given in full) — what was its TGI?
Result: > 100 µM

Problem: Sample `C#Cc1cccc(Nc2ncnc3ccc(OCCCCNCCS(C)(=O)=O)cc23)c1` — what was its TGI?
Result: 12.5 µM

====

system: RXF 393 renal; experiment: NCI tumour cell line growth inhibition, 48 h
Respond with yes for TGI values of 3 µM and above, no for values below.

compound	assignedLabel
CC(C)(C)c1ccc2c(c1)C#Cc1cc(C(C)(C)C)ccc1OCCCO2	yes
Cn1cc(C2=C(c3cn(-c4ccccc4)c4ccccc34)C(=O)NC2=O)c2ccccc21	yes
Oc1c(Cl)cc(Cl)cc1/C=N/Nc1nnc(N/N=C/c2cc(Cl)cc(Cl)c2O)c2ccccc12	no

Problem: Dear colleague, could you confirm whether CCOC(=O)C1=C(C)NC(=O)NC1CN1C(=O)c2ccccc2C1=O (stereo not given) has TGI at or above 3 µM?
Result: yes

Problem: Dear colleague, could you confirm whether `CC(C)(C)C(=O)Nc1cccc2oc(-c3ccccc3)cc12` has TGI at or above 3 µM?
Result: yes

Problem: Dear colleague, could you confirm whether `O=C(NCCCNCCN1C(=O)c2cccc3cc([N+](=O)[O-])cc(c23)C1=O)c1cc(-c2ccccc2)nc2ccccc12` has TGI at or above 3 µM?
Result: yes

Problem: Dear colleague, could you confirm whether `O=c1cnnc(N/N=C/c2ccccc2O)[nH]1` has TGI at or above 3 µM?
Result: yes

Problem: Dear colleague, could you confirm whether CC(=O)Nc1ccc(C(=O)NN2C(=O)CSC2c2ccc(O)cc2)cc1 (stereo not given) has TGI at or above 3 µM?
Result: yes

Problem: Dear colleague, could you confirm whether `O=C(C=P(c1ccccc1)(c1ccccc1)c1ccccc1)CCl` has TGI at or above 3 µM?
Result: no

Problem: Dear colleague, could you confirm whether C=C1C(=O)O[C@H]2[C@H](OC(C)=O)[C@@H](C)CCCC3(C)OC3CCC3(CO3)[C@H](O)C[C@@H]12 (stereo not given in full) has TGI at or above 3 µM?
Result: yes

====

We begin with a simple list: items and their reported TGI.
test system: SNB-75 CNS; test: NCI tumour cell line growth inhibition, 48 h

>>> df
                                   molecule    result
0  CC1(C)N=C(N)N=C(N)N1c1ccc(OCCCNC(=O)Nc2cccc(S(=O)(=O)F)c2)c(Cl)c1  > 100 µM

Problem: Sample `Clc1cc(Cl)c2cc3cccc[n+]3cc2c1Cl` — what was its TGI?
Result: 24.7 µM

Problem: Sample COc1cc2cc(C(=O)N3CC(CCl)c4ccc([N+](=O)[O-])cc43)[nH]c2c(OC)c1OC (stereo not given) — what was its TGI?
Result: > 100 µM

Problem: Sample CCN1c2cc(Br)cc3[nH]c(=O)n(c23)CCC1C (stereo not given) — what was its TGI?
Result: 32.4 µM

Problem: Sample O=C(OCCCl)C1OC(n2cc(F)c(=O)[nH]c2=O)CC1O (stereo not given) — what was its TGI?
Result: > 100 µM

====

system: HCT-15 colon; test: NCI tumour cell line growth inhibition, 48 h
We begin with a simple list: items and their reported TGI.
Return type: number; implicit unit µM.

Some solved entries appear below for comparison.
>>> print(df.to_string())
                                   molecule  endpoint  resultnumber
0  CCN(CC)CC(C)C(=O)/C=C/c1ccc(C)cc1 (stereo unspecified)       TGI          5.71
1  NC(=S)N/N=C1\c2ccccc2-c2c(F)c(F)c(F)c(F)c21       TGI          4.61

Alright, here's another molecule for you.
Problem: Sample `COc1ccc(C(=NN=C(N)N)c2ccc(OC)cc2)cc1` — what was its TGI?
Result: 19.9

====

We begin with a simple list: items and their reported TGI.
tested on: MOLT-4 leukemia; test: NCI tumour cell line growth inhibition, 48 h
Return type: number; implicit unit µM.

Some solved entries appear below for comparison.
                                   molecule  endpoint  resultnumber
0     CCCCCCn1c(SC)nc(COC(=O)NC)c1COC(=O)NC       TGI          53.8
1  COc1cc(/C=C/c2cc(/C=C/c3ccc(O)c(OC)c3)n(C(=O)Nc3ccccc3Cl)n2)ccc1O       TGI           1.2

Alright, here's another molecule for you.
Problem: Sample COC(=O)c1ccccc1CC1Cc2cc3c(cc2C1=O)CCC3 (stereo unspecified) — what was its TGI?
Result: 33.9

====

test system: SK-MEL-28 melanoma; test: NCI tumour cell line growth inhibition, 48 h
We begin with a simple list: items and their reported GI50.

Some solved entries appear below for comparison.
compound	experimentalTarget	GI50
COc1ccc(/C=C2\COc3ccc(O)c(O)c3C2=O)c(OC)c1OC	SK-MEL-28 melanoma	2630 nM
COc1cccc(-c2cc(=O)c3cc(N4CCOCC4)ccc3[nH]2)c1	SK-MEL-28 melanoma	24.8 nM
C=C1C(=O)O[C@H]2[C@H](OC(C)=O)[C@@H](C)CCCC3(C)OC3CCC3(CO3)[C@H](O)C[C@@H]12 (some centres undefined)	SK-MEL-28 melanoma	8360 nM
Cn1cc(-c2nc(-c3c[nH]c4ncccc34)cs2)c2ccccc21	SK-MEL-28 melanoma	48800 nM
O=C(C=P(c1ccccc1)(c1ccccc1)c1ccccc1)CCl	SK-MEL-28 melanoma	1540 nM
COc1cc(/C=C/c2cc(/C=C/c3ccc(O)c(OC)c3)n(C(=O)Nc3ccccc3Cl)n2)ccc1O	SK-MEL-28 melanoma	519 nM
COc1ccc(C(=NN=C(N)N)c2ccc(OC)cc2)cc1	SK-MEL-28 melanoma	5700 nM
COCCOC1=CC(=O)c2c(O)ccc(O)c2C1=O	SK-MEL-28 melanoma	1750 nM

Problem: Request - read-out GI50 | tested on SK-MEL-28 melanoma | compound `CC(C)(C)c1cc(/C=N/NC(=O)c2ccccc2NC(=O)c2cccs2)c(O)c(C(C)(C)C)c1`
Result: 3000 nM

Problem: Request - read-out GI50 | tested on SK-MEL-28 melanoma | compound `O=c1cnnc(N/N=C/c2ccccc2O)[nH]1`
Result: 4540 nM

Problem: Request - read-out GI50 | tested on SK-MEL-28 melanoma | compound O=[N+]([O-])c1ccc(C(Cl)C(Cl)c2ccc(C(Cl)C(Cl)c3ccc([N+](=O)[O-])cc3[N+](=O)[O-])cc2)c([N+](=O)[O-])c1 (centres undefined)
Result: 389 nM
